From: patent US20240217989A1

- experimentalSystem: DGKα (Homo sapiens)
- Construct: His
- Sequence (P23743 whole entry): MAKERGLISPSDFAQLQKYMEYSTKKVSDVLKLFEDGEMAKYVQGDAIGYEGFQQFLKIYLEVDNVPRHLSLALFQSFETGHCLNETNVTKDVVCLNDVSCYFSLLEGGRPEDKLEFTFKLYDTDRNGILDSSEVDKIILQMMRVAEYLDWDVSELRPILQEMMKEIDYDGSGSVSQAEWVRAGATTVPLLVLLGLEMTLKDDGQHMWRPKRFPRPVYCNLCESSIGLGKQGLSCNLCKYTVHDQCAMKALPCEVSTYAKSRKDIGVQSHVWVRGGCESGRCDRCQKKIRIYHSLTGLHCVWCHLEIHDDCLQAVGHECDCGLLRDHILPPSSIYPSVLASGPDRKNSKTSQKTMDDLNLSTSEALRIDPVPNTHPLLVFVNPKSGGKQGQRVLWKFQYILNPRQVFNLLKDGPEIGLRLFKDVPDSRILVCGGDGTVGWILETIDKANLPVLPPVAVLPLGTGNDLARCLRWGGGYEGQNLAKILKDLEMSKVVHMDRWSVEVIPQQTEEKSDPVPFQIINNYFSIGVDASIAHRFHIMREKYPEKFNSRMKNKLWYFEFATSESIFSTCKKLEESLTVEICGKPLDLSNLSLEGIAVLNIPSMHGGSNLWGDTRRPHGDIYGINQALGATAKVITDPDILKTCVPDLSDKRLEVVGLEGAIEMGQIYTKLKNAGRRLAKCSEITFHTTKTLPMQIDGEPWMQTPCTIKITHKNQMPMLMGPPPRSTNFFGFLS
- testProtocol: In vitro DGKα inhibition assay (ADP-Glo)
- experimentalSetup: His-tagged human recombinant enzyme; 0.1 nM DGKα, 50 μM ATP, 20 μM DLG; 90 minute incubation; ADP-Glo luminescence
quantityMeasured: IC50

For every item in the list below, what is its measured IC50?
1. [2H]c1c([2H])c([2H])c(Oc2ccc(/C=C(\F)c3cncc(N4CC(F)(F)C4)n3)c(N3CCCC4(CCN(CC)CC4)C3)c2C(F)(F)F)c([2H])c1[2H]
2. COCCN1CCC2(CC1)CN(c1c(/C=C(\F)c3cncc(-c4ccnnc4)n3)ccc(Oc3ccccc3)c1C(F)(F)F)CCO2
3. CCN1CCC2(CCCN(c3c(/C=C(\F)c4cncc(N5CC(F)(F)C5)n4)ccc(Oc4ccccc4)c3C(F)(F)F)C2)CC1
4. CCN1CCC2(CC1)CN(c1c(/C=C(\F)c3cncc(-c4ccnnc4)n3)ccc(Oc3cccc(F)c3)c1C(F)(F)F)CCO2
5. CCN1CCC2(CCCN(c3c(/C=C(\F)c4nccc(-c5ccnnc5)n4)ccc(Oc4ccccc4F)c3C(F)(F)F)C2)CC1

Response given:
1. ≤ 20 nM
2. 20 to 200 nM
3. 20 to 200 nM
4. ≤ 20 nM
5. ≤ 20 nM

For every item in the list below, what is its measured IC50?
1. COc1cc(F)ccc1Oc1ccc(/C=C(\F)c2ccnc(-c3ccnnc3)n2)c(N2CCC[C@@H](CN)C2)c1Cl
2. F/C(=C\c1ccc(Oc2ccccc2)c(C(F)(F)F)c1N1CCCC2(CCN(CC3CC3)CC2)C1)c1cncc(N2CCC(F)(F)C2)n1
3. F/C(=C\c1ccc(OC2CCC2)c(C(F)(F)F)c1N1CCCC2(CCN(CC3CC3)CC2)C1)c1nccc(-c2ccnnc2)n1
4. F/C(=C\c1ccc(Oc2ccccc2)c(C(F)(F)F)c1N1CCCC2(CCN(CC3CC3)CC2)C1)c1cncc(-c2ccnnc2)n1
5. CCN1CCC2(CCCN(c3c(/C=C(\F)c4cncc(N5CCC(F)(F)C5)n4)ccc(Oc4ccccc4F)c3C(F)(F)F)C2)CC1
6. F/C(=C\c1ccc(Oc2ccccc2)c(C(F)(F)F)c1N1CCOC2(CCN(CC3CC3)CC2)C1)c1cccc(-c2ccnnc2)n1

Response given:
["≤ 20 nM", "≤ 20 nM", "≤ 20 nM", "≤ 20 nM", "≤ 20 nM", "≤ 20 nM"]

For every item in the list below, what is its measured IC50?
1. F/C(=C\c1ccc(Oc2ccccc2)c(C(F)(F)F)c1N1CCCC2(CCN(CC3CC3)CC2)C1)c1nccc(-c2ccnnc2)n1
2. COCCN1CCC2(CC1)CN(c1c(/C=C(\F)c3nccc(-c4ccnnc4)n3)ccc(Oc3ccccc3)c1C(F)(F)F)CCO2

Response given:
≤ 20 nM
≤ 20 nM
